The values you see were collected from patent US20220242950A1.

Item-by-item account of IC50 of IL-1α signaling (HEK-Blue assay)
# target: T1, human IL1RAP on the cell surface (human, UniProt Q9NPH3 21-570)
# T1 sequence (looked up): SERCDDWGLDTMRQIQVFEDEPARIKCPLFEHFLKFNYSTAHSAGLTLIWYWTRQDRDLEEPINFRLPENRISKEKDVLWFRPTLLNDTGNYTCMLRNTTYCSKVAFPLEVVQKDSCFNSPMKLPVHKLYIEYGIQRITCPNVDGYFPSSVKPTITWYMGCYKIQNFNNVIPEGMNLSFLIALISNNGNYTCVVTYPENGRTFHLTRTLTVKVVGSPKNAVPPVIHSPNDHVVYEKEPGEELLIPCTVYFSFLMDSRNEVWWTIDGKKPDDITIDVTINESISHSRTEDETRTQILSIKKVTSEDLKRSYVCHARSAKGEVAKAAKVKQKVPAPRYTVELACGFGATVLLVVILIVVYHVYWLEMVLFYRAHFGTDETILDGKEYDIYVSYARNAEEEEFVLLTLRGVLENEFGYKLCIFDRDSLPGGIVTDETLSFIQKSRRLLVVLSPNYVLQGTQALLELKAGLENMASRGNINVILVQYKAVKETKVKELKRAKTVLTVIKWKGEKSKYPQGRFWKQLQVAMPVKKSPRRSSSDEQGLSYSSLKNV
# procedure summary: cell-based or functional assay

h48D2 VH5:VL3 (antibody, human IgG1, kappa, L234A L235A, V domains shown, Humanized; also called VL3:VH5) VH: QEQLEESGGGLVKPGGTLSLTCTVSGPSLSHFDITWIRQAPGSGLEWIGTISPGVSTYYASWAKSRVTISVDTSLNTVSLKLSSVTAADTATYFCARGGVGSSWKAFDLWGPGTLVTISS VL: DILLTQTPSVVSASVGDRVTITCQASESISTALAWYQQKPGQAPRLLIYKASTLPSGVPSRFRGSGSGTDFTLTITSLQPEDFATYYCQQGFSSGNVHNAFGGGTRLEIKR :: 4.45 nM

Lab note: next binder to report on.
q: Fill in IC50 of IL-1α signaling (HEK-Blue assay) for record h48D2 VH5:VL1 (antibody, human IgG1, kappa, L234A L235A, V domains shown, Humanized; also called VL1:VH5) VH: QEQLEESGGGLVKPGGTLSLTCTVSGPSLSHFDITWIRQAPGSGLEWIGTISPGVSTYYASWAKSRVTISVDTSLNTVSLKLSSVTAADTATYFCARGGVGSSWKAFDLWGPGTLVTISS VL: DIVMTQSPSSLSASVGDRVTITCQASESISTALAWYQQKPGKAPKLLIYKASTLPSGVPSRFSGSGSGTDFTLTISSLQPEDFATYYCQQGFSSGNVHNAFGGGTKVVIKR
a: 2.14 nM
